Test: LD50 in the mouse per os (method of C. S. Weil)
Settings: in vivo, po
recorded_metric: LD50

// query Item under review: COC(=O)C1=C(C)NC(C)=C(C(=O)OCCN(C)CCCC(C#N)(c2ccc(OC)c(OC)c2)C(C)C)C1c1cccc([N+](=O)[O-])c1 (stereo not shown) . Reported LD50?
// result 278 mg/kg
